- assayed.system: Cytochrome P450 2D6 (Homo sapiens)
- method.summary: Cytochrome P450 family 2 subfamily D member 6 (CYP2D6) small molecule antagonists: luciferase biochemical (cell-free) qHTS assay (AID 1645840); further: nearly all actives have a fitted effect of over 55% in size
- particulars: P450-Glo CYP2D6 enzyme, luciferin luminescence, 1 h; series mostly up to 57.4 µM
Inconclusive results are not listed. Active and inactive are the calls of the source. The call rests on the fitted dose curve; in most records, active means well fitted inhibition curve with a large enough effect in the repeat runs; inconclusive means weak or mixed curves; inactive means flat fitted curve, though single readings scatter.
Select the correct class. Options are label 1 for active, label 0 for inactive and nothing else.

// known answers, use as guide
> print(dat)
                                   compound    group
1     CN1C(=O)CN=C(c2ccccc2Cl)c2cc(Cl)ccc21  label 0
2  COc1ccsc1CNCC[C@@]1(c2ccccn2)CCOC2(CCCC2)C1  label 0
3                         CCOc1cc(C=O)ccc1O  label 0

Query string: Recorded test call requested for CC(C)[C@H](NC(=O)c1nn(Cc2ccc(F)cc2)c2ccccc12)C(N)=O
Result string: label 1

Query string: State the result this test recorded for COc1ccc2c(c1)c(CCN(C)C)cn2S(=O)(=O)c1ccccc1 .
Result string: label 1

Query string: Outcome? OC(CNc1ccccc1)Cn1c2ccc(Br)cc2c2cc(Br)ccc21 (stereo not drawn)
Result string: label 1

Query string: Hi team, can someone confirm the assay call for Cc1[nH]c2ccc(Cl)cc2c1CCN(C)C ?
Result string: label 1

Query string: Write down the call the test reported for this compound. Item: CCOP(=S)(OCC)SCSc1ccc(Cl)cc1
Result string: label 1

Query string: I would be grateful if you could indicate the recorded call for CN1C2CCC1CC(OC(=O)N1Cc3ccccc3NC1=O)C2 (stereo not drawn) .
Result string: label 0

Query string: Hello, I am checking results. What call was entered for CN(C(=O)CN1C(=O)COc2cc(Cl)c(Cl)cc21)[C@@H](CN1CCCC1)c1ccc(-c2cccc(C(N)=O)c2)cc1 ?
Result string: label 1

Query string: Test call for this compound, please: Cc1c(Cl)c(OCC(=O)N2CCN(C)CC2)nc2sc(C(=O)NC3CC3)c(N)c12
Result string: label 0

Query string: How did this test come out for C[C@H]1CN(CC[C@H](O)C2CCCCC2)CC[C@@]1(C)c1cccc(O)c1 ?
Result string: label 1
